The origin of these recorded values is ChEMBL document CHEMBL1132700.

Quick reference: IC50 of the listed items.
biological target: Adrenergic receptor alpha-1 (Rattus norvegicus, UniProt P15823+P23944+P43140); experiment: Inhibitory concentration against radioligand [3H]prazosin binding to Alpha-1 adrenergic receptor in rat
Numbers only here, please. The scale is µM.

Please review the entries below; each comes with its answer.
CCCN(CCC)CCCc1ccc(OC)c(OCCc2ccccc2)c1.Cl = 14.1
CCCN(CCC)CCc1cc(Cl)ccc1OCCc1ccccc1.O=C(O)C(=O)O = 0.09
CCCN(CCC)CCc1ccc(OC)c(OCCc2ccccc2)c1.Cl = 10.8

Lab note: next compound to report on.
Problem: Notebook: pull reported IC50 for Adrenergic receptor alpha-1 (Rattus norvegicus, UniProt P15823+P23944+P43140), entry CCCN(CCC)CCc1cccc(OC)c1OCCc1ccccc1.Cl
Result: 11.7

---

test system: Mus musculus; assay: Effect at an intraperitoneal dose of 10 mg/kg against methamphetamine-induced hyperlocomotion in mice; type: functional
measured-parameter: Control (%)
Supply the numeric figure in %, leaving out any unit text.

Use these answered entries as a reference point.
CCCN(CCC)CCc1ccc(OC)c(OCCc2ccccc2)c1.Cl = 119
O=C(CCCN1CCC(O)(c2ccc(Cl)cc2)CC1)c1ccc(F)cc1 [HALOPERIDOL] = 7.3
CCCN(CCC)CCCc1ccc(OC)c(OCCc2ccccc2)c1.Cl = 99

Now let's try a different one.
Problem: # Control lookup, item CCCN(CCC)CCc1cccc(OC)c1OCCc1ccccc1.Cl
Result: 98

---

Quick reference for IC50 among some molecules
molecular target: D(2) dopamine receptor (Rattus norvegicus, UniProt P61169); assay: Inhibitory concentration against radioligand [3H](-)-sulpiride binding to Dopamine receptor D2 in rat
Sequence (P61169 whole entry): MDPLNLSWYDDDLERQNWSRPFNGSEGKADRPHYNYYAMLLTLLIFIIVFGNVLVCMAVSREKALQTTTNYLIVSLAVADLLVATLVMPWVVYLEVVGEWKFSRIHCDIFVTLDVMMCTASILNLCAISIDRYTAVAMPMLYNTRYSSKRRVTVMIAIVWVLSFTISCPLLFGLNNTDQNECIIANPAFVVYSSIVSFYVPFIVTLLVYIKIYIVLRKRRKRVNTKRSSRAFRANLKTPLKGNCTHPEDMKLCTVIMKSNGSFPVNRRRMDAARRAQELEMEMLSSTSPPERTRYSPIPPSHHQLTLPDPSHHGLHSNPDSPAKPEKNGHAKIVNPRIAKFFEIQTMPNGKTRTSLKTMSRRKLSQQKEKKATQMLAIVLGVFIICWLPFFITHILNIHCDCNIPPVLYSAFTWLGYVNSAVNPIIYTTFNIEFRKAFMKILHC

CCCN(CCC)CCc1ccc(OC)c(OCCc2ccc(F)cc2)c1 = > 1000 nM

Problem: # IC50 lookup, item CCCN(CCC)CCc1cc(Br)cc(Br)c1OCCc1ccccc1
Result: > 1000 nM

Problem: Entry CCCN(CCC)CCc1ccc(OC)c(OCCc2cccc(Cl)c2)c1 please
Result: > 1000 nM

---

Each entry below carries its reported pIC50.
target: UniProtKB P61169; experiment: Inhibitory concentration against radioligand [3H](-)-sulpiride binding to Dopamine receptor D2 in rat
pIC50: −log10 of the molar value.

As a guide, the following entries are already answered.
CCCN(CCC)CCc1cc(F)ccc1OCCc1ccccc1 = < 6.00
CCCN(CCC)CCc1cc(Cl)cc(Cl)c1OCCc1ccccc1 = < 6.00

Problem: Fill in the blank: the reported pIC50 of OC(CCCN1CCN(c2ncc(F)cn2)CC1)c1ccc(F)cc1 (stereo not drawn) is ____.
Result: < 6.00
